Target: Neprilysin (Homo sapiens)
Sequence (P08473 whole entry): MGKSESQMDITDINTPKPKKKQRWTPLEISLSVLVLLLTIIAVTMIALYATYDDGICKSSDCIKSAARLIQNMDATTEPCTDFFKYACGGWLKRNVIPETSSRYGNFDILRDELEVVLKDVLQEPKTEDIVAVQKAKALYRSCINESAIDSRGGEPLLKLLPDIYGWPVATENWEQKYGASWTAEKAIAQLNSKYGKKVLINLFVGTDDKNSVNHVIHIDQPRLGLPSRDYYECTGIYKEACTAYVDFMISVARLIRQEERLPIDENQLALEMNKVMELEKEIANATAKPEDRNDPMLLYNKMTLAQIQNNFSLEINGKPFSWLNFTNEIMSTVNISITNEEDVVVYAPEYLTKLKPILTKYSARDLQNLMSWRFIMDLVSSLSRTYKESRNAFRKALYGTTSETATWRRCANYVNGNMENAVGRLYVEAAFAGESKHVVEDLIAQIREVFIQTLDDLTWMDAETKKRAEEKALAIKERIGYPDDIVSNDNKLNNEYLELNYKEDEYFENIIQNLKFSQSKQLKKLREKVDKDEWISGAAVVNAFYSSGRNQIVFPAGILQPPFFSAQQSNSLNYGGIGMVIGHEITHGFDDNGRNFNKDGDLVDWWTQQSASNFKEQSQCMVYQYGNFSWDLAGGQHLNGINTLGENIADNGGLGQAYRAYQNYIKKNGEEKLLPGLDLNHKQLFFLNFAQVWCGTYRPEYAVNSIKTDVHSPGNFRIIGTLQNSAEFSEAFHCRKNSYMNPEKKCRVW
Assay: Drug metabolism assessed as recombinant human NEP-medited peptide proteolysis at 1 mM up to 72 hrs by LC-MS analysis
Type: ADME
Conditions: 1000 µM
Starred links: 1 amine or outer side, 2 acyl side, 3 side chain; linkers in the order of their positions; H or OH if unused. Non-standard residues stand in square brackets, D forms with d. Residues, ends and D or L forms follow the SMILES beside them. Phe(4-Br) = N[C@@H](Cc1ccc(Br)cc1)C(=O)O; azaLeu = CC(C)CN(N[*:1])C(=O)[*:2]; Nle = CCCC[C@H](N)C(=O)O; Aib = CC(C)(N)C(=O)O
METRIC: Drug metabolism

[[record]]
compound = "CCCC[C@H](NC(=O)[C@@H]1CCCN1C(=O)CNC(=O)[C@H](CCCCN)NC(=O)[C@H](Cc1c[nH]cn1)NC(=O)[C@H](CO)NC(=O)[C@H](CC(C)C)NC(=O)[C@](C)(CCCNC(=N)N)NC(=O)[C@@H]1CCCN1C(=O)[C@H](CCCNC(=N)N)NC(=O)[C@@H]1CCC(=O)N1)C(=O)NC(C)(C)C(=O)N[C@@H](Cc1ccc(Br)cc1)C(=O)O"
result = "Metabolite_Notdetected"

[[record]]
compound = "CCCC[C@H](NC(=O)[C@@H]1CCCN1C(=O)CNC(=O)[C@H](CCCCN)NC(=O)[C@H](Cc1c[nH]cn1)NC(=O)[C@H](CO)NC(=O)N(CC(C)C)NC(=O)[C@H](CCCNC(=N)N)NC(=O)[C@@H]1CCCN1C(=O)[C@H](CCCNC(=N)N)NC(=O)[C@H](CCC(N)=O)NC(=O)[C@H](CCCNC(=N)N)NC(=O)[C@H](CCCNC(=N)N)NC(=O)[C@H](Cc1ccccc1)NC(=O)[C@@H](N)CCCCN)C(=O)NC(C)(C)C(=O)N[C@@H](Cc1ccc(Br)cc1)C(=O)O (H-KFRRQRPR[azaLeu]SHKGP[Nle][Aib][Phe(4-Br)]-OH)"
result = "Metabolite_Notdetected"

[[record]]
compound = "CSCC[C@H](NC(=O)[C@@H]1CCCN1C(=O)CNC(=O)[C@H](CCCCN)NC(=O)[C@H](Cc1cnc[nH]1)NC(=O)[C@H](CO)NC(=O)[C@H](CC(C)C)NC(=O)[C@H](CCCNC(=N)N)NC(=O)[C@@H]1CCCN1C(=O)[C@H](CCCNC(=N)N)NC(=O)[C@@H]1CCC(=O)N1)C(=O)N1CCC[C@H]1C(=O)N[C@@H](Cc1ccccc1)C(=O)O"
result = "Metabolite_Detected"

[[record]]
compound = "CCCC[C@H](NC(=O)[C@@H]1CCCN1C(=O)CNC(=O)[C@H](CCCCN)NC(=O)[C@H](Cc1c[nH]cn1)NC(=O)[C@H](CO)NC(=O)[C@H](CC(C)C)NC(=O)[C@H](CCCNC(=N)N)NC(=O)[C@@H]1CCCN1C(=O)[C@H](CCCNC(=N)N)NC(=O)[C@@H]1CCC(=O)N1)C(=O)NC(C)(C)C(=O)N[C@@H](Cc1ccc(Br)cc1)C(=O)O"
result = "Metabolite_Detected"


###

System: Heart
Assay: Cardioprotective activity against Langendorff isolated mouse heart ischemia-reperfusion model assessed as improvement in RPP at 1 uM administered for 10 mins during start of 40 mins reperfusion period post 30 mins ischemic induction
Format: functional, tissue-based
Calls of active or inactive are those of the source. The calls are words filed in the database; no cut-off is given here. Non-standard residues stand in square brackets, D forms with d. Residues, ends and D or L forms follow the SMILES beside them. Phe(4-Br) = N[C@@H](Cc1ccc(Br)cc1)C(=O)O; NMeL = CN[C@@H](CC(C)C)C(=O)O; Nle = CCCC[C@H](N)C(=O)O; Aib = CC(C)(N)C(=O)O
METRIC: Activity

[[record]]
compound = "CSCC[C@H](NC(=O)[C@@H]1CCCN1C(=O)CNC(=O)[C@H](CCCCN)NC(=O)[C@H](Cc1cnc[nH]1)NC(=O)[C@H](CO)NC(=O)[C@H](CC(C)C)NC(=O)[C@H](CCCNC(=N)N)NC(=O)[C@@H]1CCCN1C(=O)[C@H](CCCNC(=N)N)NC(=O)[C@H](CCC(N)=O)NC(=O)[C@H](CCCNC(=N)N)NC(=O)[C@H](CCCNC(=N)N)NC(=O)[C@H](Cc1ccccc1)NC(=O)[C@@H](N)CCCCN)C(=O)N1CCC[C@H]1C(=O)N[C@@H](Cc1ccccc1)C(=O)O"
system_under_test = "Heart"
result = "Active"

[[record]]
compound = "CCCC[C@H](NC(=O)[C@@H]1CCCN1C(=O)CNC(=O)[C@H](CCCCN)NC(=O)[C@H](Cc1c[nH]cn1)NC(=O)[C@H](CO)NC(=O)[C@H](CC(C)C)N(C)C(=O)[C@H](CCCNC(=N)N)NC(=O)[C@@H]1CCCN1C(=O)[C@H](CCCNC(=N)N)NC(=O)[C@H](CCC(N)=O)NC(=O)[C@H](CCCNC(=N)N)NC(=O)[C@H](CCCNC(=N)N)NC(=O)[C@H](Cc1ccccc1)NC(=O)[C@@H](N)CCCCN)C(=O)NC(C)(C)C(=O)N[C@@H](Cc1ccc(Br)cc1)C(=O)O (H-KFRRQRPR[NMeL]SHKGP[Nle][Aib][Phe(4-Br)]-OH)"
system_under_test = "Heart"
result = "Active"


###

Biological target: Neprilysin (Homo sapiens)
Test: Inhibition of recombinant human NEP using pyr-1-apelin-13 as substrate assessed as peptide degradation at 1 mM preincubated for 10 mins followed by substrate addition measured after 72 hrs by LC-MS analysis
Conditions: 1000 µM
Non-standard residues stand in square brackets, D forms with d. Residues, ends and D or L forms follow the SMILES beside them. Phe(4-Br) = N[C@@H](Cc1ccc(Br)cc1)C(=O)O; NMeL = CN[C@@H](CC(C)C)C(=O)O; Nle = CCCC[C@H](N)C(=O)O; Aib = CC(C)(N)C(=O)O
METRIC: inhibition (INH)

[[record]]
compound = "CCCC[C@H](NC(=O)[C@@H]1CCCN1C(=O)CNC(=O)[C@H](CCCCN)NC(=O)[C@H](Cc1c[nH]cn1)NC(=O)[C@H](CO)NC(=O)[C@H](CC(C)C)N(C)C(=O)[C@H](CCCNC(=N)N)NC(=O)[C@@H]1CCCN1C(=O)[C@H](CCCNC(=N)N)NC(=O)[C@@H]1CCC(=O)N1)C(=O)NC(C)(C)C(=O)N[C@@H](Cc1ccc(Br)cc1)C(=O)O"
result = "Not Active"

[[record]]
compound = "CCCC[C@H](NC(=O)[C@@H]1CCCN1C(=O)CNC(=O)[C@H](CCCCN)NC(=O)[C@H](Cc1c[nH]cn1)NC(=O)[C@H](CO)NC(=O)[C@H](CC(C)C)N(C)C(=O)[C@H](CCCNC(=N)N)NC(=O)[C@@H]1CCCN1C(=O)[C@H](CCCNC(=N)N)NC(=O)[C@H](CCC(N)=O)NC(=O)[C@H](CCCNC(=N)N)NC(=O)[C@H](CCCNC(=N)N)NC(=O)[C@H](Cc1ccccc1)NC(=O)[C@@H](N)CCCCN)C(=O)NC(C)(C)C(=O)N[C@@H](Cc1ccc(Br)cc1)C(=O)O (H-KFRRQRPR[NMeL]SHKGP[Nle][Aib][Phe(4-Br)]-OH)"
result = "Not Active"

[[record]]
compound = "CCCC[C@H](NC(=O)[C@@H]1CCCN1C(=O)CNC(=O)[C@H](CCCCN)NC(=O)[C@H](Cc1c[nH]cn1)NC(=O)[C@H](CO)NC(=O)[C@@H](CC(C)C)NC(=O)[C@H](CCCNC(=N)N)NC(=O)[C@@H]1CCCN1C(=O)[C@H](CCCNC(=N)N)NC(=O)[C@@H]1CCC(=O)N1)C(=O)NC(C)(C)C(=O)N[C@@H](Cc1ccc(Br)cc1)C(=O)O"
result = "Not Active"


###

Measured Drug degradation, listed per entry for reference.
Target: UniProt:P08473
Experiment: Drug degradation in human plasma assessed as NEP-mediated degradation by measuring amount of apelin remaining after 60 mins by RP-HPLC analysis
Type: ADME
Details: 1 h
Starred links: 1 amine or outer side, 2 acyl side, 3 side chain; linkers in the order of their positions; H or OH if unused. Non-standard residues stand in square brackets, D forms with d. Residues, ends and D or L forms follow the SMILES beside them. Phe(4-Br) = N[C@@H](Cc1ccc(Br)cc1)C(=O)O; X1 = N=C(N)NCCCN(N[*:1])C(=O)[*:2]; αMeL = CC(C)C[C@](C)(N)C(=O)O; Nle = CCCC[C@H](N)C(=O)O; Aib = CC(C)(N)C(=O)O
METRIC: Drug degradation (%)

[[record]]
molecule = "CCCC[C@H](NC(=O)[C@@H]1CCCN1C(=O)CNC(=O)[C@H](CCCCN)NC(=O)[C@H](Cc1c[nH]cn1)NC(=O)[C@H](CO)NC(=O)[C@H](CC(C)C)NC(=O)[C@H](CCCNC(=N)N)NC(=O)[C@@H]1CCCN1C(=O)[C@H](CCCNC(=N)N)NC(=O)[C@H](CCC(N)=O)NC(=O)[C@H](CCCNC(=N)N)NC(=O)[C@H](CCCNC(=N)N)NC(=O)[C@H](Cc1ccccc1)NC(=O)[C@@H](N)CCCCN)C(=O)NC(C)(C)C(=O)N[C@@H](Cc1ccc(Br)cc1)C(=O)O (H-KFRRQRPRLSHKGP[Nle][Aib][Phe(4-Br)]-OH)"
metric = "Drug degradation"
unit_symbol = "%"
quantitative_result = 35

[[record]]
molecule = "CCCC[C@H](NC(=O)[C@@H]1CCCN1C(=O)CNC(=O)[C@H](CCCCN)NC(=O)[C@H](Cc1c[nH]cn1)NC(=O)[C@H](CO)NC(=O)[C@H](CC(C)C)NC(=O)N(CCCNC(=N)N)NC(=O)[C@@H]1CCCN1C(=O)[C@H](CCCNC(=N)N)NC(=O)[C@H](CCC(N)=O)NC(=O)[C@H](CCCNC(=N)N)NC(=O)[C@H](CCCNC(=N)N)NC(=O)[C@H](Cc1ccccc1)NC(=O)[C@@H](N)CCCCN)C(=O)NC(C)(C)C(=O)N[C@@H](Cc1ccc(Br)cc1)C(=O)O (H-KFRRQRP[X1]LSHKGP[Nle][Aib][Phe(4-Br)]-OH)"
metric = "Drug degradation"
unit_symbol = "%"
quantitative_result = 94

[[record]]
molecule = "CCCC[C@H](NC(=O)[C@@H]1CCCN1C(=O)CNC(=O)[C@H](CCCCN)NC(=O)[C@H](Cc1c[nH]cn1)NC(=O)[C@H](CO)NC(=O)[C@](C)(CC(C)C)NC(=O)[C@H](CCCNC(=N)N)NC(=O)[C@@H]1CCCN1C(=O)[C@H](CCCNC(=N)N)NC(=O)[C@H](CCC(N)=O)NC(=O)[C@H](CCCNC(=N)N)NC(=O)[C@H](CCCNC(=N)N)NC(=O)[C@H](Cc1ccccc1)NC(=O)[C@@H](N)CCCCN)C(=O)NC(C)(C)C(=O)N[C@@H](Cc1ccc(Br)cc1)C(=O)O (H-KFRRQRPR[αMeL]SHKGP[Nle][Aib][Phe(4-Br)]-OH)"
metric = "Drug degradation"
unit_symbol = "%"
quantitative_result = 48

[[record]]
molecule = "CCCC[C@H](NC(=O)[C@@H]1CCCN1C(=O)CNC(=O)[C@H](CCCCN)NC(=O)[C@H](Cc1c[nH]cn1)NC(=O)[C@H](CO)NC(=O)[C@@H](CC(C)C)NC(=O)[C@H](CCCNC(=N)N)NC(=O)[C@@H]1CCCN1C(=O)[C@H](CCCNC(=N)N)NC(=O)[C@@H]1CCC(=O)N1)C(=O)NC(C)(C)C(=O)N[C@@H](Cc1ccc(Br)cc1)C(=O)O"
metric = "Drug degradation"
unit_symbol = "%"
quantitative_result = 22

[[record]]
molecule = "CCCC[C@H](NC(=O)[C@@H]1CCCN1C(=O)CNC(=O)[C@H](CCCCN)NC(=O)[C@H](Cc1c[nH]cn1)NC(=O)[C@H](CO)NC(=O)[C@H](CC(C)C)N(C)C(=O)[C@H](CCCNC(=N)N)NC(=O)[C@@H]1CCCN1C(=O)[C@H](CCCNC(=N)N)NC(=O)[C@@H]1CCC(=O)N1)C(=O)NC(C)(C)C(=O)N[C@@H](Cc1ccc(Br)cc1)C(=O)O"
metric = "Drug degradation"
unit_symbol = "%"
quantitative_result = 59

